Value source: PubChem BioAssay (NCI)

system: SNB-19 CNS; assay: NCI-60 one-dose screen, 48 h (100 = growth as untreated, 0 = no growth, -100 = all killed); settings: 10 µM unless noted
This is part of a sample that, as a whole, favours compounds with a hit. Of some 83,000 tested, about 20% had one in any assay.
growth strictly under 90% means Met; at 90% or over means Not met.

These solved cases illustrate the format of a correct answer.
Prompt line: Check if growth falls below 90% for COc1ccc2c(c1)C=CC(C#N)N2C(=O)c1ccccc1 (stereo not drawn) .
Response line: Met

Prompt line: Check if growth falls below 90% for O=C(Cc1n[nH]c(=O)c2ccccc12)OCc1c(Cl)cccc1Cl .
Response line: Not met

Prompt line: Check if growth falls below 90% for CCn1cc(C(=O)O)c(=O)c2cc(F)c(N3CCN(S(=O)(=O)c4cccc5ccccc45)CC3)cc21 .
Response line: Met

Prompt line: Check if growth falls below 90% for CCC(c1ccc(OC)cc1)C(CC)c1ccc(OCC[N+](C)(C)C)cc1 (stereo not drawn) .
Response line: Met

Prompt line: Check if growth falls below 90% for CCSc1nnc(NC(=O)Cc2ccc(Cl)cc2)s1 .
Response line: Not met

Prompt line: Check if growth falls below 90% for Nc1nc(-c2ccccc2)cs1 .
Response line: Not met

Prompt line: Check if growth falls below 90% for CCN1C(=S)N(CC)C2Nn3c(s/c(=C4\C(=O)N(C)c5ccccc54)c3=O)=NC21 (stereo not drawn) .
Response line: Met

Prompt line: Check if growth falls below 90% for O=C1OC(c2ccccc2)=N/C1=C\c1ccc([N+](=O)[O-])cc1 .
Response line: Not met

Prompt line: Check if growth falls below 90% for CCSc1nnc(Nc2ccc(C(C)C)cc2)s1 .
Response line: Not met

Prompt line: Check if growth falls below 90% for NC(=O)NC(=O)/C=C/C(=O)OCCCl .
Response line: Not met

Continuing:
Prompt line: Check if growth falls below 90% for Cc1ccnc2nc(C(=O)OCC(=O)Nc3ccc(-c4ccccc4)cc3)nn12 .
Response line: Not met

Prompt line: Check if growth falls below 90% for Nc1c(C(=O)Nc2cccc(C(F)(F)F)c2)sc2nc3c(cc12)CCCCC3 .
Response line: Met

###

test system: KM12 colon; experiment: NCI-60 one-dose screen, 48 h (100 = growth as untreated, 0 = no growth, -100 = all killed); settings: 10 µM unless noted
About 83,000 compounds went through this panel and 20% of them were active in at least one assay; those are over-represented in the sample as a whole. Active and inactive are the calls of the source. Rule for the calls: active = growth percent below 10; inactive = the rest.
reported.endpoint: growth

Before answering, review these 3 worked examples.
Prompt line: Fill in growth for record Oc1ccc(N=Cc2ccccc2)cc1
Response line: 91.3% (inactive)

Prompt line: Fill in growth for record COc1ccc(/C=C/c2nc(N3CCOCC3)c3cc(F)c(F)cc3n2)cc1OC
Response line: 28.1% (inactive)

Prompt line: Fill in growth for record NS(=O)(=O)c1ccc(NCC(=O)Nc2ccc(-c3nc4ccccc4s3)cc2)cc1
Response line: 61.6% (inactive)

Okay, now this compound:
Prompt line: Fill in growth for record CC(=O)Nc1ccc2c(c1)/C(=C\C=C/c1ccc([N+](C)(C)C)cc1)c1ccccc1-2
Response line: 97.1% (inactive)

###

system: HT29 colon; experiment: NCI-60 one-dose screen, 48 h (100 = growth as untreated, 0 = no growth, -100 = all killed); details: 10 µM unless noted
About 83,000 compounds went through this panel and 20% of them were active in at least one assay; those are over-represented in the sample as a whole.
The entries below are paired with their reported growth.
Form entry: value (%) — number only.

Before answering, review these 3 worked examples.
Prompt line: Fill in growth for record C[C@]12CC[C@@H]3c4cc(O)c(O)cc4CC[C@H]3[C@@H]1CC[C@@H]2O
Response line: 96.4

Prompt line: Fill in growth for record NC(=O)c1cccc(N2Cc3ccccc3OC3=C2C(=O)c2c(O)ccc(O)c2C3=O)c1
Response line: -55.8

Prompt line: Fill in growth for record O=C(CC(O)c1ccncc1)c1ccccc1 (stereo not given)
Response line: 32.7

Continuing:
Prompt line: Fill in growth for record O=C(Nc1ccccc1)OCC1OCOC(COC(=O)Nc2ccccc2)C1OC(=O)Nc1ccccc1 (stereo not given)
Response line: 43.1

Prompt line: Fill in growth for record COc1cccc2cc(-c3cc4ccccc4[nH]3)/c(=N/C(=S)Nc3ccccc3)oc12
Response line: 81.8
